Half-life % change over d0 values by entry
TEST_NAME: In vitro human liver microsomal stability assay
Format: in vitro ADME
MEASUREMENT_CONDITIONS: human liver microsomes 0.5 mg/mL protein, NADPH 2 mM, pH 7.4, 1 μM test compound, 37 °C, 0-45 min; change relative to non-deuterated (d0) comparative compound
Protocol: In Vitro Liver Microsomal Stability Assay Human liver microsomal stability assays were conducted at 0.5 mg per mL liver microsome protein with NADPH (2 mM, pH 7.4). Test compounds were prepared as solutions in DMSO and added to the assay mixture (1 μM, final concentration in incubation) to be incubated at 37±1° C. […] Supernatant fractions were analyzed by LC-MS/MS to determine the percent remaining and estimate the degradation half-life of the test compounds.

# COMPOUND, RESULT_UNITS, Half-life % change over d0
records = [
    ("[2H]C([2H])([2H])c1ccc(C([2H])([2H])NC([2H])([2H])C2(F)CCN(C(=O)c3ccc(F)c(Cl)c3)CC2)nc1", "%", 10.0),
    ("[2H]C([2H])(NCC1(F)CCN(C(=O)c2ccc(F)c(Cl)c2)CC1)c1ncc(C)cn1", "%", "−3.5"),
    ("[2H]C(NCc1ccc(C)cn1)C1(F)C([2H])([2H])C([2H])([2H])N(C(=O)c2ccc(F)c(Cl)c2)C([2H])([2H])C1([2H])[2H] (stereo not drawn)", "%", 6.2),
    ("[2H]C([2H])([2H])c1cnc(C([2H])([2H])NCC2(F)CCN(C(=O)c3ccc(F)c(Cl)c3)CC2)nc1", "%", "−5.2"),
    ("[2H]C([2H])(NCc1ccc(C)cn1)C1(F)CCN(C(=O)c2ccc(F)c(Cl)c2)CC1", "%", 8.4),
    ("[2H]C([2H])([2H])c1cnc(CNCC2(F)CCN(C(=O)c3ccc(F)c(Cl)c3)CC2)nc1", "%", "−7.7"),
    ("[2H]C(NCc1ncc(C)cn1)C1(F)C([2H])([2H])C([2H])([2H])N(C(=O)c2ccc(F)c(Cl)c2)C([2H])([2H])C1([2H])[2H] (stereo not drawn)", "%", 0.9),
    ("[2H]C([2H])(NCc1ncc(C)cn1)C1(F)CCN(C(=O)c2ccc(F)c(Cl)c2)CC1", "%", "−2.1"),
    ("[2H]C([2H])([2H])c1ccc(CNCC2(F)CCN(C(=O)c3ccc(F)c(Cl)c3)CC2)nc1", "%", 5.6),
]
